Provenance of the data: patent US6566048B1

biological target: ACCase preparation from S. cerevisiae CLS2-13 (C. albicans ACC1 gene in Yep24) (Candida albicans); test: In-vitro ACCase assay ([14C] NaHCO3 incorporation); format: biochemical; conditions: 37° C., 5 minutes, read-out: IC50 for Soraphen A (nM) against ACCase preparations
OBSERVABLE: IC50

[ask] Any idea what IC50 was measured for `CO[C@H]1CCCC[C@@H](c2ccccc2)OC(=O)[C@@H](C)[C@@]2(O)O[C@H]([C@@H](C)[C@H](O)[C@H]2OC)[C@@H](C)/C=C/[C@H]1OC` ?
[reply] 2.5 nM

* * *

target: ACCase preparation from S. cerevisiae PNS 117b 6A (Candida albicans, UniProt A0A1D8PRR7); assay: In-vitro ACCase assay ([14C] NaHCO3 incorporation); assay type: biochemical, C. albicans; conditions: 37° C., 5 minutes, read-out: IC50 for Soraphen A (nM) against ACCase preparations
Sequence (A0A1D8PRR7 entry or part of it): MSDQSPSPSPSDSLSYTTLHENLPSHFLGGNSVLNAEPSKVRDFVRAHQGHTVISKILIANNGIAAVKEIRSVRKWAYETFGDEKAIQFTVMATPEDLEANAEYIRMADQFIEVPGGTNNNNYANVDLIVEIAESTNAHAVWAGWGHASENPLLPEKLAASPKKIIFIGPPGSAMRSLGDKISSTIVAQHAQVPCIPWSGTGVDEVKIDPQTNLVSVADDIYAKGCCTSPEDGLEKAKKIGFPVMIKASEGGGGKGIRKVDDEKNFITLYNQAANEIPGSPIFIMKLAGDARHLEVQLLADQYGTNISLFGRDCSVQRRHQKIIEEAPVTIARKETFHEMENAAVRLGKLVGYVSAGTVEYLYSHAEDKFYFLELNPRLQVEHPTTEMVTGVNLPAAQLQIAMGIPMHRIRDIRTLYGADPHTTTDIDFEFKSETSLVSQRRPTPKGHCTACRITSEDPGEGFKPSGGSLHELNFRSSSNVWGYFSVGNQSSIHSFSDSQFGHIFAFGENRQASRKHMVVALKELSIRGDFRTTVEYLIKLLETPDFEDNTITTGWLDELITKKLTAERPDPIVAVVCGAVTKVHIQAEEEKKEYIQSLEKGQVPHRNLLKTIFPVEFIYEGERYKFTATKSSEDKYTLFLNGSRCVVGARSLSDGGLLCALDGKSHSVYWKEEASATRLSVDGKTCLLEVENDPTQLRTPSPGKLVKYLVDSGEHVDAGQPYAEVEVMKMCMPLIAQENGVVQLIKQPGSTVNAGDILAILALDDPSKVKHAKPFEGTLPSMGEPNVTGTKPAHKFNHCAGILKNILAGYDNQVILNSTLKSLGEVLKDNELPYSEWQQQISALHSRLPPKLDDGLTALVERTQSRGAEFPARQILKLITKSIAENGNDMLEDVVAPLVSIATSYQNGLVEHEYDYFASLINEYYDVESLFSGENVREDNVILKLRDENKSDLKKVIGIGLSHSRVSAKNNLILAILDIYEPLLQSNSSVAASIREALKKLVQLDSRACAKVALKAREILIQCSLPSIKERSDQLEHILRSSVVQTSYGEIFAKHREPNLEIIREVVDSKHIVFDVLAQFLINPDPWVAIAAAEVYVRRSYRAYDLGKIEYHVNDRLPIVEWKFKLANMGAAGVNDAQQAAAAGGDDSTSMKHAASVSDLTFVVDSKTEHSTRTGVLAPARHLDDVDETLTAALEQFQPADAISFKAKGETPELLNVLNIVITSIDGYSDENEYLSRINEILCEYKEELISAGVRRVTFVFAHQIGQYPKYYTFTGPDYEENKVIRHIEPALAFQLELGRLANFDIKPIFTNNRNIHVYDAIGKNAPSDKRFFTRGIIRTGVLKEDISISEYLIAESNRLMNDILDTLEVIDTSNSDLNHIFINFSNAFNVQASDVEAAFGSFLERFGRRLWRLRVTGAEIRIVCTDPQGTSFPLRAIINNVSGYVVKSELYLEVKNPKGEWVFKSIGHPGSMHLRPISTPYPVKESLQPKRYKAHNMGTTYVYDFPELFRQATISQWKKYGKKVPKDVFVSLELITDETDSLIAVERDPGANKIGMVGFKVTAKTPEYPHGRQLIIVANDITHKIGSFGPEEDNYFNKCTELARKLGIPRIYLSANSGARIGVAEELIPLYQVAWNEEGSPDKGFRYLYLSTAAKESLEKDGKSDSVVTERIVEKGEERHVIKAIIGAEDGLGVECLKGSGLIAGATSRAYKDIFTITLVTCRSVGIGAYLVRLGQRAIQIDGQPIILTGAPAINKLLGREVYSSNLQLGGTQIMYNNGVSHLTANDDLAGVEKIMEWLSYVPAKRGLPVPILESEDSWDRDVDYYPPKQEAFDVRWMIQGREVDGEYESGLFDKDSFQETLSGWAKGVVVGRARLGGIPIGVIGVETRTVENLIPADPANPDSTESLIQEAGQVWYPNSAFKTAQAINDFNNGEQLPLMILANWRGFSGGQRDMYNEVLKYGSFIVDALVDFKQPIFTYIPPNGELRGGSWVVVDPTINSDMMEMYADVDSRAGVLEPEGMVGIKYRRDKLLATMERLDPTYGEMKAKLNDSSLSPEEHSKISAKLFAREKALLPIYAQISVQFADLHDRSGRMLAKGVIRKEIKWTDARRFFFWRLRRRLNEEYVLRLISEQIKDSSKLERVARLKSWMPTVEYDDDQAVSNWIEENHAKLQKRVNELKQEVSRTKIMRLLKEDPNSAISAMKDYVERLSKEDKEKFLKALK
OBSERVABLE: IC50
Write the figure, then the unit, nothing else.

[ask] Can you look up IC50 on ACCase preparation from S. cerevisiae PNS 117b 6A (Candida albicans, UniProt A0A1D8PRR7) for `CO[C@H]1CCCC[C@@H](c2ccccc2)OC(=O)[C@@H](C)[C@@]2(O)O[C@H]([C@@H](C)[C@H](O)[C@H]2OC)[C@@H](C)/C=C/[C@H]1OC` ?
[reply] 13.1 nM
